Assay: recombinant barcode read abundance after kanamycin selection (control-corrected) (log10(CPM+1)); higher = more efficient recombination; sequences stand for … in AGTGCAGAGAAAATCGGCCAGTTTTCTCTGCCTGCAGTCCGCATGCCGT…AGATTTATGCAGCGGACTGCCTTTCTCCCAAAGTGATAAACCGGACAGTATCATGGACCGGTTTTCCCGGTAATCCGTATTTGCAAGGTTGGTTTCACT; site = the 11-nt target
// reported recombinant barcode read abundance (log10) for each item listed
Simply state the number, no unit and no words.

residue-string: CTAAATACTTGGGTTCTAACCTGTTGCTA (site CTAAATACTAG)
reported-measurement: 0.835
//
residue-string: TGTTGAGCTTGGGTTCTAACCTGTTGCAG (site TGTTGAGCTCT)
reported-measurement: 0.468
//
residue-string: CAAACTACTTGGGTTCTAACCTGTTGCTA (site CAAACTACTTA)
reported-measurement: 0.386
//
residue-string: TTGGGCACTTGGGTTCTAACCTGTTGCCT (site TTGGGCACTAG)
reported-measurement: 0.0687

I would be grateful if you could share the reported recombinant barcode read abundance (log10) for AACGCTCCTTGGGTTCTAACCTGTTGCCT (site AGCGCTCCTAG) . 0.833

Which recombinant barcode read abundance (log10) is reported for this sequence? CAAGTACCTTGGGTTCTAACCTGTTGCCT (site TAAGTACCTAG) 0.22

Name the recorded recombinant barcode read abundance (log10) for TTAGAGACTTGGGTTCTAACCTGTTGCCT (site TTAGAGTCTAG) . 0.195

What recombinant barcode read abundance (log10) value was documented for this sequence, AGCAGTACTTGGGTTCTAACCTGTTGCTA (site TTGGAGGCTAG) ? 0.248

Field request: recombinant barcode read abundance (log10) | item: GCTCCATCTTGGGTTCTAACCTGTTGCCT (site GATCCATCTAG) 0.0768

Which recombinant barcode read abundance (log10) is reported for this sequence? CTGGGCTCTTGGGTTCTAACCTGTTGCCA (site GTGGGCTCTAG) 0.282

----------
Assay: recombinant UMI read abundance after kanamycin selection (control-corrected) (log10(CPM+1)); higher = more efficient recombination; extreme values may be limits of the assay; sequences stand for … in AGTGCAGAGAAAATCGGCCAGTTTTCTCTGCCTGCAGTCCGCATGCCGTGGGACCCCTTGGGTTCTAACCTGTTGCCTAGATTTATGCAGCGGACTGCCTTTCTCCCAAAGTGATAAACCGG…AGGTTGGTTTCACT; site = the 11-nt donor
Decision: recombinant UMI read abundance (log10) compared against 0.02; not below it gives MET, below it gives NOT MET.

residue-string: GCCACGCCATGGACCGGTTTTCCCGGTAATCCGTATTTGTT (site GCCACGCCTGA)
qualitative-label: NOT MET
//
residue-string: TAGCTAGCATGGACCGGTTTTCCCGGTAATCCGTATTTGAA (site TAGCTAGCTTT)
qualitative-label: MET
//
residue-string: GGCCACCCATGGACCGGTTTTCCCGGTAATCCGTATTTGTC (site GGCCACCCTAA)
qualitative-label: MET
//
residue-string: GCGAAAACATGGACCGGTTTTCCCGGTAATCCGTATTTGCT (site GCGACAACTAG)
qualitative-label: MET
//
residue-string: GGAGCCTCATGGACCGGTTTTCCCGGTAATCCGTATTTGAC (site GGAGCCTCTGT)
qualitative-label: MET

Does the reported recombinant UMI read abundance (log10) for GAGCCTTCATGGACCGGTTTTCCCGGTAATCCGTATTTGGT (site GAGCCTTCTAC) fall at or above the 0.02 mark? MET

Decide: is the reported value of recombinant UMI read abundance (log10) for AAGCTCGCATGGACCGGTTTTCCCGGTAATCCGTATTTGGG (site AAGCTCGCTCC) equal to or greater than 0.02? NOT MET

hey, is recombinant UMI read abundance (log10) for this one >= 0.02? AGTACGTCATGGACCGGTTTTCCCGGTAATCCGTATTTGTT (site CGTACGTCTAA) MET

Check this sequence for recombinant UMI read abundance (log10) at or above 0.02: GCTATCACATGGACCGGTTTTCCCGGTAATCCGTATTTGGG (site GCTATCACTCC) MET
